test system: NCI-H460 lung; experiment: NCI tumour cell line growth inhibition, 48 h
Each entry below carries its recorded TGI.
Measured metric: TGI (µM)

[[record]]
compound = "N/C(=N\\O)c1cn(C2OC(CO)C(O)C2O)c2ncnc(N)c12 (stereo not drawn)"
study_system = "NCI-H460 lung"
relational_operator = "="
measured = 0.987

[[record]]
compound = "CCCN1CCCC(c2ccc(Nc3nc(Nc4cc(F)ccc4C(N)=O)c4cc[nH]c4n3)c(OC)c2)C1 (stereo not drawn)"
study_system = "NCI-H460 lung"
relational_operator = "="
measured = 2.99

[[record]]
compound = "CC(=O)OC(C(=O)NNC(=O)OC(C)(C)C)c1ccccc1 (stereo not drawn)"
study_system = "NCI-H460 lung"
relational_operator = ">"
measured = 100


----------
Each entry below carries its recorded TGI.
tested on: OVCAR-8 ovarian; assay: NCI tumour cell line growth inhibition, 48 h
Measured metric: TGI

[[record]]
molecule = "C[C@H](O)CCC(=O)c1ccoc1"
measured_metric = "TGI"
measured = "> 100 µM"

[[record]]
molecule = "NS(=O)(=O)c1ccc(NCc2cccc3c(=O)c4ccc(Cl)cc4oc23)cc1"
measured_metric = "TGI"
measured = "> 67.2 µM"

[[record]]
molecule = "CC(C)OC(=O)OCOP(=O)(OCOC(=O)OC(C)C)C1CCCN(O)C1=O (stereo not drawn)"
measured_metric = "TGI"
measured = "> 100 µM"

[[record]]
molecule = "CNC(=S)N/N=C/CSC/C=N/NC(=S)NC"
measured_metric = "TGI"
measured = "> 100 µM"

[[record]]
molecule = "COc1cc(/C=C(\\C#N)C(=O)c2ccccc2)cc(OC)c1OC"
measured_metric = "TGI"
measured = "> 100 µM"

[[record]]
molecule = "COc1nc2c(c(=O)[nH]1)N=C(c1ccc([N+](=O)[O-])cc1)CC(c1ccccc1)N2 (stereo not drawn)"
measured_metric = "TGI"
measured = "> 100 µM"

[[record]]
molecule = "O=c1oc2cc(O)ccc2c(O)c1C(c1ccc(/C=C/c2ccccc2)cc1)c1c(O)c2ccc(O)cc2oc1=O"
measured_metric = "TGI"
measured = "> 100 µM"

[[record]]
molecule = "COC(=O)[C@@H](C)C[C@H](Cc1ccccc1)NC(=O)c1nc([C@@H](C[C@H](C(C)C)N(C)C(=O)[C@@H](NC(=O)[C@H]2CC(=O)CCN2C)C(C)C)OC(C)=O)sc1C(C)C"
measured_metric = "TGI"
measured = "> 16.7 µM"

[[record]]
molecule = "CC1(C)OC(COP2OCCO2)[C@H](COP2OCCO2)O1 (stereo partly drawn)"
measured_metric = "TGI"
measured = "> 100 µM"

[[record]]
molecule = "CC(=O)Nc1ccc(/C=C/C(=O)c2sc(-n3nc(-c4ccccc4)cc3-c3ccccc3)nc2C)cc1"
measured_metric = "TGI"
measured = "> 100 µM"

[[record]]
molecule = "CC(=O)OCCn1c(Cc2ccc(Cl)cc2)nn(C(C)=O)c1=O"
measured_metric = "TGI"
measured = "> 100 µM"

[[record]]
molecule = "O=C1/C(=C/c2ccc(Cl)cc2)NC(=S)N1CN1CCCCC1"
measured_metric = "TGI"
measured = "> 100 µM"

[[record]]
molecule = "CN1CC[C@H](N(C)C(=O)N2CC(c3cc(F)ccc3F)=C[C@@]2(CO)c2ccccc2)[C@H](F)C1"
measured_metric = "TGI"
measured = "> 100 µM"

